TGT: Serine/threonine-protein kinase Chk2 (Homo sapiens) (UniProt O96017)
Sequence (O96017 whole entry): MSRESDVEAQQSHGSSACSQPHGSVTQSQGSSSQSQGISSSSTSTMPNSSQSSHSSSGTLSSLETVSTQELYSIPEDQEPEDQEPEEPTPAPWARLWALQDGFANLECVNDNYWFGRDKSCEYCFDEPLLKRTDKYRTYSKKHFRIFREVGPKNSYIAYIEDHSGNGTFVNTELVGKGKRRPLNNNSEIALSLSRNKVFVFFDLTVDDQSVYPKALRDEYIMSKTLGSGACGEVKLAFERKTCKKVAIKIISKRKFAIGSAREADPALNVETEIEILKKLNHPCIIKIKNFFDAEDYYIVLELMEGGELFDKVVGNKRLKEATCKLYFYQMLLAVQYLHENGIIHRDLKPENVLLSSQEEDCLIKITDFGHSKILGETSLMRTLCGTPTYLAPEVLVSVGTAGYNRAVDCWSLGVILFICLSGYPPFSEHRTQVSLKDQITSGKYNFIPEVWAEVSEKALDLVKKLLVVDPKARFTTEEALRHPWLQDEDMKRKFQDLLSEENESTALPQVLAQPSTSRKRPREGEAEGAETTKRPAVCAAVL
EXPERIMENT: Inhibition of CHK2 at 10 uM by HTRF assay relative to control
READOUT_LABEL: inhibition (%)

Here is how some compounds turned out for inhibition.
[ask] Which value of inhibition has been reported for `Cc1cccc(N(C)c2cc(Nc3cccc(C(=O)N(CC(C)C)CC(C)C)c3)ncn2)c1` in the records?
[reply] 0

[ask] Data request, read-out inhibition, for `Nc1nc(N2CCOCC2)cc(N2CCC(C(=O)NCc3cccs3)CC2)n1`
[reply] 0

[ask] Would you mind telling me what inhibition value was observed for `CC(=O)N1CCN(C(=O)c2cccc(Nc3cc(N(C)c4cccc(C)c4)ncn3)c2)CC1` ?
[reply] 0

[1] Nc1nc(Nc2ccccc2)cc(N2CCC(C(=O)NCCc3ccccn3)CC2)n1
[2] COC(=O)C(CO)NC(=O)[C@@H]1CCCN1c1nccc(Oc2cccc(C)c2)n1 (stereo not given in full)
[ask] Just curious, which one has the larger inhibition reading, 1 or 2 ? Response format: the label of the selected entry.
[reply] 2
